Kindly state OD450 nm for each of the entries shown.
# target.entity: T1, human IL2Rβ Fc fusion protein (human, UniProt P14784 27-239)
# T1 construct: also called ILR2β; CD122; not shown: Fc part
# T1 sequence (looked up): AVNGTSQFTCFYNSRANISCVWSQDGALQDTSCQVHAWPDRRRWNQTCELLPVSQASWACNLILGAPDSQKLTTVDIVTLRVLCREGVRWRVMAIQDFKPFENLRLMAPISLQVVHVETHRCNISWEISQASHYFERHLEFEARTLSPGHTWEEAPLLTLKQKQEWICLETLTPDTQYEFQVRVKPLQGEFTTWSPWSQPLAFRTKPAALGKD
# test.description: ELISA, single concentration, anti-flag detection, E. coli-produced clone
# Method: Supernatants containing engineered IL2 mutants were assessed with sandwich ELISA assay to screen for IL2Rα binding. […] The engineered IL2 mutant binding was detected by adding 50 μL of anti-Flag HRP diluted at 1:5000 in 1× PBST. […] The plate was read at OD450 nm using a Biotek plate reader and the binding and selectivity was analyzed. Single clones were next screened for IL2Rβ binding. […] The engineered IL2 mutant binding was detected by adding 50 μL of anti-Flag HRP diluted at 1:5000 in 1× PBST. […]
Show the value, then the unit it is measured in.

Examples with their reported OD450 nm follow.
# binder, readout.value
data = [
    ("EP568 (clone 2021EP16-H06), E. coli-produced (ligand) APASSSTKKTQLQLEHLLLDLQMILNGINNYKNPKLTRMLTFKFYMPKKATELKHLQCLEEELKPLEEVLNLAQSKNFHLLAKRTVSNMYVRVEELKGSETTFMCEYADETATIVEFLNRWITFSQSIISTLT", "0.105 OD450"),
    ("EP579 (clone 2021EP16-E11), E. coli-produced (ligand) APASSSTKKTQLQLEHLLLDLQMILNGINNYKNPKLTRMLTFKFYMPKKATELKHLQCLEEELKPLEEVLNLAQSKNFHLRPSYIVSYTNVFPLVLKGSETTFMCEYADETATIVEFLNRWITFSQSIISTLT", "0.611 OD450"),
]

Input: Input EP583 (clone 2021EP16-H10), E. coli-produced (ligand) APASSSTKKTQLQLEHLLLDLQMILNGINNYKNPKLTRMLTFKFYMPKKATELKHLQCLEEELKPLEEVLNLAQSKNFHLSAIDLMSSVKVVVWKLKGSETTFMCEYADETATIVEFLNRWITFSQSIISTLT , output reported OD450 nm.
Output: 0.323 OD450

Reference source: patent US20250326813A1
